Here's a batch of molecules along with measured IC50 for Advanced glycosylation end product-specific receptor (Homo sapiens).

SMILES_REPRESENTATION | IC50 / µM
CCCCOc1cc(OCCCN(CC)CC)ccc1NC(=O)c1cc(-c2ccc(Oc3ccccc3)cc2)nn1C | 5.4
CCCCOc1cc(OCCCN(CC)CC)ccc1NC(=O)c1cc(-c2ccc(Oc3ccccn3)cc2)nn1C | 18.9

###

# EXPERIMENTAL_TARGET: Advanced glycosylation end product-specific receptor (Homo sapiens)
# Sequence (Q15109 whole entry): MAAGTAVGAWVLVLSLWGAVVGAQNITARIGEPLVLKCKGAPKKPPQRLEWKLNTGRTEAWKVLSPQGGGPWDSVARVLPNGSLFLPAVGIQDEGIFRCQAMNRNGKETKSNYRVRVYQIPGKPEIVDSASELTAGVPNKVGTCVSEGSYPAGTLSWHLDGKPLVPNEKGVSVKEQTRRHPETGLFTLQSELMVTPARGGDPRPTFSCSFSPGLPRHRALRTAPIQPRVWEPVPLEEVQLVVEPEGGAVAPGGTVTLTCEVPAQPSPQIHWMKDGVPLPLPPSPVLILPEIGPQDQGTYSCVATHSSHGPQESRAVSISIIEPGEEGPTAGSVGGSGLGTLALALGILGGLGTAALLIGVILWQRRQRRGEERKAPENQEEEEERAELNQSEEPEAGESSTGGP
# ASSAY_METHOD_TEXT: Inhibition of biotinylated human RAGE assessed as bound amyloid beta level at 20 uM after 60 mins by ELISA relative to control
Active and inactive are the calls of the source. The rule behind the calls is not given here.

SMILES_REPRESENTATION | inhibition
CCCCOc1cc(OCCCN(CC)CC)ccc1NC(=O)c1cc(-c2ccc(Oc3ccc(C(F)(F)F)cc3)cc2)nn1C | 83.1%
CCCCOc1cc(OCCCN(CC)CC)ccc1NC(=O)c1cc(-c2ccc(Oc3ccc(Cl)cc3)cc2)no1 | 32.1%
CCCCn1nc(-c2ccc(Oc3ccc(Cl)cc3)cc2)cc1C(=O)Nc1ccc(OCCCN(CC)CC)cc1 | 41.4%
CCCCOc1cc(OCCCN(CC)CC)ccc1NC(=O)c1cc(-c2ccc(Oc3ccc(OC)cc3)cc2)nn1C | 74.2%
CCN(CC)CCCOc1ccc(NC(=O)c2cc(-c3ccc(OC)cc3)nn2C)cc1 | 20.5%
CCCCOc1cc(OCCCN(CC)CC)ccc1NC(=O)c1cc(-c2ccc(Oc3ccc(Cl)cc3)cc2)nn1CC | 44.7%
CCCCOc1cc(OCCCN(CC)CC)ccc1NC(=O)c1cc(-c2ccc(Oc3ccc(Cl)cc3)cc2)nn1C | 49.7%
CCCCOc1cc(OCCCN(CC)CC)ccc1NC(=O)c1cc(-c2ccc(Oc3ccccn3)cc2)nn1C | 52.6%
CCCCOc1cc(OCCCN(CC)CC)ccc1NC(=O)c1cc(-c2ccc(Oc3ccc(Cl)cc3)cc2)n(CCC)n1 | 45.7%
CCCCOc1cc(OCCCN(CC)CC)ccc1NC(=O)c1cc(-c2ccc(Oc3ccc(F)cc3)cc2)nn1C | 79.3%
CCCCOc1cc(OCCCN(CC)CC)ccc1NC(=O)c1cc(-c2ccc(Oc3ccc(C(C)(C)C)cc3)cc2)nn1C | inactive
CCN(CC)CCOc1ccc(NC(=O)c2cc(-c3ccc(OC)cc3)nn2C)cc1 | 20.5%
CCCCOc1cc(OCCCN(CC)CC)ccc1NC(=O)c1cc(-c2ccc(Oc3ccc(Cl)cc3)cc2)n(CCCC)n1 | 36%
CCCCOc1cc(OCCCN(CC)CC)ccc1NC(=O)c1cc(-c2ccc(Oc3ccccc3)cc2)nn1C | 77%
CCCCOc1cc(OCCCN(CC)CC)ccc1NC(=O)c1cc(-c2ccc(Oc3ccc(OC)c(F)c3)cc2)nn1C | 34.1%
CCCCOc1cc(OCCCN(CC)CC)ccc1NC(=O)c1cc(-c2ccc(Oc3ccc(Cl)cc3)cc2)nn1CCC | 44.6%
CCCCOc1cc(OCCCN(CC)CC)ccc1NC(=O)c1cc(-c2ccc(Oc3ccc(Cl)cc3)cc2)n[nH]1 | inactive
CCN(CC)CCOc1ccc(NC(=O)c2cc(-c3ccc(Oc4ccc(Cl)cc4)cc3)nn2C)cc1 | 27%
CCCCOc1cc(OCCCN(CC)CC)ccc1NC(=O)c1cc(-c2ccc(Oc3ccc(Cl)cc3)cc2)nn1CCCC | inactive
